Where these numbers come from: ChEMBL document CHEMBL1150036

Kindly supply the reported pKi values for the records listed here.
- measurement.target: Human immunodeficiency virus type 1 protease (Human immunodeficiency virus 1, UniProt Q72874)
Give bare numbers, as −log10 of the molar value.

Recorded pKi, per entry:
>>> df
                                     smiles  parameter  recorded_value
0  O=C(NCCCCCN1C(=O)N(CCCCCNC(=O)c2ccc(F)cc2)[C@H](Cc2ccccc2)[C@H](O)[C@@H](O)[C@H]1Cc1ccccc1)c1ccc(F)cc1        pKi            7.74
1  O=C1N(CCCCCO)[C@H](Cc2ccccc2)[C@H](O)[C@@H](O)[C@@H](Cc2ccccc2)N1Cc1ccccc1        pKi            9.17
2  O=C1N(CCCCCO)[C@H](Cc2ccccc2)[C@H](O)[C@@H](O)[C@@H](Cc2ccccc2)N1Cc1cccc(O)c1        pKi           10.09
3  O=C(NCCCCCN1C(=O)N(CCCCCNC(=O)c2cccc(F)c2)[C@H](Cc2ccccc2)[C@H](O)[C@@H](O)[C@H]1Cc1ccccc1)c1cccc(F)c1        pKi            7.85

Your task in this section: give pKi for each listed record.
1. O=C1N(CCCCCCCO)[C@H](Cc2ccccc2)[C@H](O)[C@@H](O)[C@@H](Cc2ccccc2)N1CCCCCCCO
2. O=C1N(CCCCCO)[C@H](Cc2ccccc2)[C@H](O)[C@@H](O)[C@@H](Cc2ccccc2)N1Cc1ccc2ccccc2c1
3. O=C1N(CCCCCCO)[C@H](Cc2ccccc2)[C@H](O)[C@@H](O)[C@@H](Cc2ccccc2)N1CCCCCCO
4. O=C1N(CCCCCO)[C@H](Cc2ccccc2)[C@H](O)[C@@H](O)[C@@H](Cc2ccccc2)N1CCCCCO
5. CNC(=O)NCCCCCN1C(=O)N(CCCCCNC(=O)NC)[C@H](Cc2ccccc2)[C@H](O)[C@@H](O)[C@H]1Cc1ccccc1

Response given:
1: 7.47; 2: 9.62; 3: 9.33; 4: 8.85; 5: 6.57

// input: 6 compounds below; output: pKi for each
1. O=C1N(CCCCCO)[C@H](Cc2ccccc2)[C@H](O)[C@@H](O)[C@@H](Cc2ccccc2)N1Cc1cccc(CO)c1
2. O=C(Cc1cccnc1)NCCCCCN1C(=O)N(CCCCCNC(=O)Cc2cccnc2)[C@H](Cc2ccccc2)[C@H](O)[C@@H](O)[C@H]1Cc1ccccc1
3. COC(=O)CCCCCN1C(=O)N(CCCCCC(=O)OC)[C@H](Cc2ccccc2)[C@H](O)[C@@H](O)[C@H]1Cc1ccccc1
4. O=C(O)CCCCCN1C(=O)N(CCCCCC(=O)O)[C@H](Cc2ccccc2)[C@H](O)[C@@H](O)[C@H]1Cc1ccccc1
5. COCCCCCN1C(=O)N(CCCCCOC)[C@H](Cc2ccccc2)[C@H](O)[C@@H](O)[C@H]1Cc1ccccc1
6. CS(=O)(=O)NCCCCCN1C(=O)N(CCCCCNS(C)(=O)=O)[C@H](Cc2ccccc2)[C@H](O)[C@@H](O)[C@H]1Cc1ccccc1

Response given:
1: 10.24; 2: 8.05; 3: 7.54; 4: 9.62; 5: 7.02; 6: 6.57
